Reference source for all entries: ChEMBL document CHEMBL5257040

Test: Tmax in Beagle dog at 3 mg/kg, po and measured upto 24 hrs by LC-MS/MS analysis
Format: ADME, organism-based, Canis lupus familiaris
Conditions: in vivo
quantity name: Tmax (h)
Report only the number, with the unit h understood.

Quick one: Tmax of FC(F)(F)c1nccc2cc(Nc3n[nH]c4ncccc34)ccc12 ?
1

----------
Assay: Cmax in Cynomolgus monkey at 3 mg/kg, po and measured upto 24 hrs by LC-MS/MS analysis
Format: ADME, organism-based, Macaca fascicularis
Parameters: dose 3 mg/kg, time < 24 hrs, route po
Conditions: in vivo
quantity name: Cmax (nM)
Kindly answer with a numeric value in nM, unit omitted.

Query: Cmax; subject: FC(F)(F)c1nccc2cc(Nc3n[nH]c4ncccc34)ccc12
260

----------
Experiment: Brain to plasma permeability coefficient, Kp in cynomolgus monkey at 0.2 mg/kg, iv and measured upto 1 hrs by LC-MS/MS analysis
Type: ADME, organism-based, Macaca fascicularis
quantity name: Kp at 1 h
Give your answer as a number; write no unit.

Fill in the blank: the reported Kp at 1 h of FC(F)(F)c1nccc2cc(Nc3n[nH]c4ncccc34)ccc12 is ____.
1.24

----------
Test: Volume of distribution at steady state in CD-1 mouse plasma at 1 mg/kg, iv and measured upto 24 hrs by LC-MS/MS analysis
Format: ADME, organism-based
Details: read-out: Vdss
quantity name: Vd
Returns: string containing the number followed by the unit.

Given the entry FC(F)(F)c1nccc2cc(Nc3n[nH]c4ncccc34)ccc12 , report its measured Vd.
9.93 L/kg

----------
Assay: AUC (0 to infinity) in Beagle dog at 3 mg/kg, po and measured upto 24 hrs by LC-MS/MS analysis
Assay type: ADME, organism-based, Canis lupus familiaris
Design: time < 24 hrs, dose 3 mg/kg, route po
Settings: in vivo
quantity name: AUC(0-inf) (µM·h)
Expressed in µM·h, but write only the number.

So what's the measured AUC(0-inf) for this one? FC(F)(F)c1nccc2cc(Nc3n[nH]c4ncccc34)ccc12
1.82

----------
Target: P-gp (ABCB1) (Homo sapiens, UniProt P08183)
Sequence (P08183 whole entry): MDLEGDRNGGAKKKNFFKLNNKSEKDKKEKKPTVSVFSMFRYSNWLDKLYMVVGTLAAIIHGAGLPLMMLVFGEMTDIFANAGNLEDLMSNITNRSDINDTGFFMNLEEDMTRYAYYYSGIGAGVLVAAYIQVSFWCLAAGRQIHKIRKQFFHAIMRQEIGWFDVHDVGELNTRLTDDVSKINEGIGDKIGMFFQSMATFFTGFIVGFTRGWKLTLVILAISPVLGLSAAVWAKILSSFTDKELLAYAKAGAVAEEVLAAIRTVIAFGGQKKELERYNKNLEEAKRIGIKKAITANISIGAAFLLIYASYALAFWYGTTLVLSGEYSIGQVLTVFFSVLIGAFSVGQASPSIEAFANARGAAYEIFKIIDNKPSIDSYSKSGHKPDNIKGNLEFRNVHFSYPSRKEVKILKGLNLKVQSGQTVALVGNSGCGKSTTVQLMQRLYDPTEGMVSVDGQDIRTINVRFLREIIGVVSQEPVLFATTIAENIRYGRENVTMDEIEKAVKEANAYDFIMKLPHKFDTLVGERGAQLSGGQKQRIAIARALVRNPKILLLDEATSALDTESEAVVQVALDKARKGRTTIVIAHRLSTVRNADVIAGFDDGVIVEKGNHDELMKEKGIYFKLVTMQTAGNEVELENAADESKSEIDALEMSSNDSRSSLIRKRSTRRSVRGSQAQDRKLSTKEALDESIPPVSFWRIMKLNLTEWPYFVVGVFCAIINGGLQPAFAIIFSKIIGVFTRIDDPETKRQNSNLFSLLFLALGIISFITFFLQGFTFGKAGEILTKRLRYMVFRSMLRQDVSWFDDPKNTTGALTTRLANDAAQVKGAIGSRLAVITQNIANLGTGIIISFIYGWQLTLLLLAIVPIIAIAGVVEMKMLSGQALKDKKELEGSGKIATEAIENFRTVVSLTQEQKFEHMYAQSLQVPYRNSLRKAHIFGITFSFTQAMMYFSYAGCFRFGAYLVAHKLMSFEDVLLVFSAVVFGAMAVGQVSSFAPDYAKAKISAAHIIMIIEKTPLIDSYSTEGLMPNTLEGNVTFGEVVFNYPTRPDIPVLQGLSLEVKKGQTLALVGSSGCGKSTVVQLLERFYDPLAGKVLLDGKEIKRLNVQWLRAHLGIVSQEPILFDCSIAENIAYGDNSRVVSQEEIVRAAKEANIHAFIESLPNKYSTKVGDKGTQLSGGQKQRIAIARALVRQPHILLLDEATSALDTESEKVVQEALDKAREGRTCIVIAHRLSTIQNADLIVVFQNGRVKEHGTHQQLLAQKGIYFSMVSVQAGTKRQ
Test: Substrate activity at human P-gp assessed as apparent permeability
Format: ADME
Conditions: not told
quantity name: Papp (×10⁻⁶ cm/s)
Reply with just the number (in ×10⁻⁶ cm/s).

// lookup Papp for FC(F)(F)c1nccc2cc(Nc3n[nH]c4ncccc34)ccc12
8

----------
Test: Oral bioavailability in Beagle dog at 3 mg/kg and measured upto 24 hrs by LC-MS/MS analysis
Format: ADME, organism-based, Canis lupus familiaris
Details: in vivo
quantity name: bioavailability (%)
Please reply with the bare figure in % and do not write the unit itself.

I'd like to know its bioavailability. The compound in question is FC(F)(F)c1nccc2cc(Nc3n[nH]c4ncccc34)ccc12
37.5

----------
Assay: Volume of distribution at steady state in Sprague-Dawley rat at 0.2 mg/kg, iv and measured upto 24 hrs by LC-MS/MS analysis
Type: ADME, organism-based
Details: in vivo, read-out: Vdss
quantity name: Vd (L/kg)
I only need the number, in L/kg, no unit after it.

Consider the molecule FC(F)(F)c1nccc2cc(Nc3n[nH]c4ncccc34)ccc12 and give its measured Vd.
3

----------
Assay: Oral bioavailability in CD-1 mouse plasma at 3 mg/kg and measured upto 24 hrs by LC-MS/MS analysis
Format: ADME, organism-based
quantity name: bioavailability (%)
Report only the number, with the unit % understood.

Suppose we examine the compound FC(F)(F)c1nccc2cc(Nc3n[nH]c4ncccc34)ccc12 ; what bioavailability value has been reported?
79

----------
Molecular target: Metabotropic glutamate receptor 1 (Rattus norvegicus)
Experiment: Positive allosteric modulator activity at rat mGlu1 in human HEK cells assessed assessed as increase in calcium flux preincubated for 2.5 mins followed by gluatamate addition by Fluo-4 AM dye based calcium mobilization assay
Type: cell-based
quantity name: EC50

I am curious: what EC50 value has been reported for FC(F)(F)c1nccc2cc(Nc3n[nH]c4ncccc34)ccc12 ?
> 10 µM

----------
Experiment: Cmax in Sprague-Dawley rat at 30 mg/kg, po administered as spray-dried dispersion formulation and measured after 24 hrs by LC-MS/MS analysis
Type: ADME, organism-based
Set-up: time 24 hrs, dose 30 mg/kg, route po
Details: in vivo
quantity name: Cmax
Number plus unit, in that order.

# get_value(readout='Cmax', item= FC(F)(F)c1nccc2cc(Nc3n[nH]c4ncccc34)ccc12 )
6.05 µM

----------
Assay: Protein binding in dog plasma assessed as fraction unbound incubated for 4 hrs by equilibrium dialysis based LC/MS/MS analysis
Assay type: ADME, cell-free, Canis lupus familiaris
quantity name: fraction unbound at 4 h
Lab note: record the figure alone, no unit after it.

// returns reported fraction unbound at 4 h for input FC(F)(F)c1nccc2cc(Nc3n[nH]c4ncccc34)ccc12
0.014

----------
Biological target: Kir2.1 (Homo sapiens)
Sequence (Q7Z4S6 whole entry): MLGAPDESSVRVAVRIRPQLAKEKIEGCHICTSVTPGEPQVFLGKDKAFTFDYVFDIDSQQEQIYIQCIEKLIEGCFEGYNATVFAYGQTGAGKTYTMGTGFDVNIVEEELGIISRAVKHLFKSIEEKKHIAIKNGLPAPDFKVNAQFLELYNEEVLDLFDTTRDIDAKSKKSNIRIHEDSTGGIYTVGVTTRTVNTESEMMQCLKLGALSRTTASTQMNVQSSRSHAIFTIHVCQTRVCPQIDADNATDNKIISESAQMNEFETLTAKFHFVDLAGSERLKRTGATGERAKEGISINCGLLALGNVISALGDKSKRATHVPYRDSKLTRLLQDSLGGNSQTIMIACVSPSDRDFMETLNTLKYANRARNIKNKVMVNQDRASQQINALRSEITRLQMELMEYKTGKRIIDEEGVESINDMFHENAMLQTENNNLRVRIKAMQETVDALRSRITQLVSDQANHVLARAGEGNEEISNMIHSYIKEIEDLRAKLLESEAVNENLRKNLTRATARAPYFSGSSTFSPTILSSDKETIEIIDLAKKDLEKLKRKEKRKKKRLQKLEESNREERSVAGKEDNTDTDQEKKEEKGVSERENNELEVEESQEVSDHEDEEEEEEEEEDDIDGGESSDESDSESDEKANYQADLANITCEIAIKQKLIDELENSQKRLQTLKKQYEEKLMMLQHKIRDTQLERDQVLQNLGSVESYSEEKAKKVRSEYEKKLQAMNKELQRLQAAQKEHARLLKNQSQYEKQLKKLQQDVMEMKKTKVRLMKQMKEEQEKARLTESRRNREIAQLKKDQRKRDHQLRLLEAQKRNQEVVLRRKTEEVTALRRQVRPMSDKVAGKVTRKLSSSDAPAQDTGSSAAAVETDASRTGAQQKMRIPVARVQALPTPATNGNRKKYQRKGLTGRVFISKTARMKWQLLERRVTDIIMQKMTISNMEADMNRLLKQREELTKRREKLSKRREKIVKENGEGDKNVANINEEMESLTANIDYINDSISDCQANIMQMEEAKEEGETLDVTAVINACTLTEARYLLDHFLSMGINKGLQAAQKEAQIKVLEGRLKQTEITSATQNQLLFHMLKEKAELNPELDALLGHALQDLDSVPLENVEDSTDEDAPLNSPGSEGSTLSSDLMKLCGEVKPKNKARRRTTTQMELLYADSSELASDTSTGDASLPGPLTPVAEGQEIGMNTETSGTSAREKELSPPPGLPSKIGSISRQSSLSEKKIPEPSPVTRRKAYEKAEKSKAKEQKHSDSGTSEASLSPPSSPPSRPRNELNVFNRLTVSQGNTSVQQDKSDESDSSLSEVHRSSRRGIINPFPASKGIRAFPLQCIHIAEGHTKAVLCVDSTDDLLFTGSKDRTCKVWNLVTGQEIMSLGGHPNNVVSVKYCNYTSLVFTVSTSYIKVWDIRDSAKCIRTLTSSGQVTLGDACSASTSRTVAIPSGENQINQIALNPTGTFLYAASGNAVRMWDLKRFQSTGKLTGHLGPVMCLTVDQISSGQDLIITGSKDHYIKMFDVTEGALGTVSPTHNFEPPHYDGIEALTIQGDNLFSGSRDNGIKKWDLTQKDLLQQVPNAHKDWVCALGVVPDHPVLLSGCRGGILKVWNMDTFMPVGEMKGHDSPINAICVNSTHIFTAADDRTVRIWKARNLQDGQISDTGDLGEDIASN
Experiment: Inhibition of Kir2.1 (unknown origin) at 10 uM
Assay type: toxicity
quantity name: inhibition at 10 µM

Name the reported inhibition at 10 µM value associated with the compound FC(F)(F)c1nccc2cc(Nc3n[nH]c4ncccc34)ccc12
< 50%

----------
Target: Cav1.2 (Homo sapiens, UniProt Q13936)
Sequence (Q13936 whole entry): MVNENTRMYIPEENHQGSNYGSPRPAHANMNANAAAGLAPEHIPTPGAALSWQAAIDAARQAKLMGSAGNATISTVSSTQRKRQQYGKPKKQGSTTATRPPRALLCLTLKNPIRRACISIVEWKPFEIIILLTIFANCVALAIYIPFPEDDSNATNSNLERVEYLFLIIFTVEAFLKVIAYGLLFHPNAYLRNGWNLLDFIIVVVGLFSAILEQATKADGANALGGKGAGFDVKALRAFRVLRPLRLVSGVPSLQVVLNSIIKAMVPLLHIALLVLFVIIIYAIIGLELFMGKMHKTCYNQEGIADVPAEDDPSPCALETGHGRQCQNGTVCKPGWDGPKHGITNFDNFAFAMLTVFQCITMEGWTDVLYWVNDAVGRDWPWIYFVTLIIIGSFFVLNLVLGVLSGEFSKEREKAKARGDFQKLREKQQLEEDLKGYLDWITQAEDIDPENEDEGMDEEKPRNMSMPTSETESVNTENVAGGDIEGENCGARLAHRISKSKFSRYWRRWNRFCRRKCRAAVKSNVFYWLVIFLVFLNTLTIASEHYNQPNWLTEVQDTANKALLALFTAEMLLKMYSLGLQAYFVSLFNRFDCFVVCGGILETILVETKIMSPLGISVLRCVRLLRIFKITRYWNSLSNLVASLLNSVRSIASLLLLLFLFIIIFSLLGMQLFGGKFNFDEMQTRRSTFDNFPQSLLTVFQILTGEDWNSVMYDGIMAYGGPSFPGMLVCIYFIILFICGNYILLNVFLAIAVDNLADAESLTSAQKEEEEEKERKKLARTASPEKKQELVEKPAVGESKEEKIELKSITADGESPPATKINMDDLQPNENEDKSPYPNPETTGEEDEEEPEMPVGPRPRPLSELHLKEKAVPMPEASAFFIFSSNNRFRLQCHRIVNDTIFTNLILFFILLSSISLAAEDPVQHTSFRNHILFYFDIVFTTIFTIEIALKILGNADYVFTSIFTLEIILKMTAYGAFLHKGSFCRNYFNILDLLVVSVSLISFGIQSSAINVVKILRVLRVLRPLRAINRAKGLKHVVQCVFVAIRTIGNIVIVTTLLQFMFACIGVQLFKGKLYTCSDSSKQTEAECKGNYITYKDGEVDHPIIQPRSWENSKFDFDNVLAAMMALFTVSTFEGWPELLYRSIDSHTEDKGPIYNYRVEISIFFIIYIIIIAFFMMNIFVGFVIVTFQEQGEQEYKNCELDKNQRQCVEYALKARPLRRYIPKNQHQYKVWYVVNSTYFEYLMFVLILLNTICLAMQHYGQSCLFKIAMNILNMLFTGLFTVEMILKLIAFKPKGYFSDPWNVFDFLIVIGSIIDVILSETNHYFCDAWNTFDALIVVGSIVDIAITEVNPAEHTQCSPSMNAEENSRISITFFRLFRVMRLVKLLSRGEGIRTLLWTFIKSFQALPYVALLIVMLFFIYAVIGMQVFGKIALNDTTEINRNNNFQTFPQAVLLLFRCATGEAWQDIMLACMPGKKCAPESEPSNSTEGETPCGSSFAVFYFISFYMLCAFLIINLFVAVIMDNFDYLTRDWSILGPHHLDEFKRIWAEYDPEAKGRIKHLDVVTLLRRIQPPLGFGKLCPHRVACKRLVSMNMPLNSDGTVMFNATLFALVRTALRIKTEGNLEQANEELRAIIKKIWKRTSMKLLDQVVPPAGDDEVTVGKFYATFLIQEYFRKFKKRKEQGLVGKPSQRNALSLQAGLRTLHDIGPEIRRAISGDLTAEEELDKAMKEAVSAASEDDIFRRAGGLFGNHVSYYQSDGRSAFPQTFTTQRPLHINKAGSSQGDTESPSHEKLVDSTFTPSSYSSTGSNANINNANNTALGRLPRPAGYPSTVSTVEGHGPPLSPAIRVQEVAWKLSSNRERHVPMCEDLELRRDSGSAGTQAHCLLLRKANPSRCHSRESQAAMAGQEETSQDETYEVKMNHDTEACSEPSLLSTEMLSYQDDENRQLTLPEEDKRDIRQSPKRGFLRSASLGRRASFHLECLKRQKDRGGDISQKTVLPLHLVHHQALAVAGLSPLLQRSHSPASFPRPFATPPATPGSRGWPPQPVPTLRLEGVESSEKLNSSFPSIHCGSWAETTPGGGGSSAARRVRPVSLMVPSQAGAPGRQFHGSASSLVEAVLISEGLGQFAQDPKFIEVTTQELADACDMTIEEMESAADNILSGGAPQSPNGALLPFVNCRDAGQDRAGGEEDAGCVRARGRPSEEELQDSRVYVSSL
Experiment: Inhibition of Cav1.2 (unknown origin) at 10 uM
Type: toxicity
quantity name: inhibition at 10 µM

GET /values?readout=inhibition at 10 µM&item= FC(F)(F)c1nccc2cc(Nc3n[nH]c4ncccc34)ccc12
< 50%

----------
Assay: Clearance in Sprague-Dawley rat plasma at 0.2 mg/kg, iv and measured upto 24 hrs by LC-MS/MS analysis
Assay type: ADME, organism-based
quantity name: clearance

Give its clearance value. Item: FC(F)(F)c1nccc2cc(Nc3n[nH]c4ncccc34)ccc12
37.7 mL/min/kg

----------
Assay: Cmax in Sprague-Dawley rat at 3 mg/kg, po and measured upto 24 hrs by LC-MS/MS analysis
Assay type: ADME, organism-based
Design: time < 24 hrs, dose 3 mg/kg, route po
Details: in vivo
quantity name: Cmax (nM)
# value in nM; strip the unit string

// returns reported Cmax for input FC(F)(F)c1nccc2cc(Nc3n[nH]c4ncccc34)ccc12
1440

----------
Assay: Elimination half life in CD-1 mouse plasma at 1 mg/kg, iv and measured upto 24 hrs by LC-MS/MS analysis
Assay type: ADME, organism-based
Conditions: read-out: beta t1/2 (converted)
quantity name: half-life (h)
Value expressed in h; do not type the unit.

Record request: half-life value, item FC(F)(F)c1nccc2cc(Nc3n[nH]c4ncccc34)ccc12
2.98

----------
Assay: AUC (0 to infinity) in Cynomolgus monkey at 3 mg/kg, po and measured upto 24 hrs by LC-MS/MS analysis
Format: ADME, organism-based, Macaca fascicularis
Parameters: time < 24 hrs, dose 3 mg/kg, route po
Details: in vivo
quantity name: AUC(0-inf) (µM·h)
Write it as a number; the unit µM·h goes unstated.

GET /values?readout=AUC(0-inf)&item= FC(F)(F)c1nccc2cc(Nc3n[nH]c4ncccc34)ccc12
2.81

----------
Test: AUC in Sprague-Dawley rat at 3 mg/kg, po administered as spray-dried dispersion formulation and measured after 24 hrs by LC-MS/MS analysis
Assay type: ADME, organism-based
Set-up: dose 3 mg/kg, time 24 hrs, route po
Conditions: in vivo
quantity name: AUC at 24 h (µM·h)
Please give a number only; it is taken to be in µM·h.

So what does the record say about AUC at 24 h for FC(F)(F)c1nccc2cc(Nc3n[nH]c4ncccc34)ccc12 ?
5.92

----------
Assay: Cmax in CD-1 mouse plasma at 3 mg/kg, po and measured upto 24 hrs by LC-MS/MS analysis
Type: ADME, organism-based
Design: time < 24 hrs, dose 3 mg/kg, route po
quantity name: Cmax

Need Cmax, item FC(F)(F)c1nccc2cc(Nc3n[nH]c4ncccc34)ccc12
1100 nM

----------
Experiment: Protein binding in mouse plasma assessed as fraction unbound incubated for 4 hrs by equilibrium dialysis based LC/MS/MS analysis
Format: ADME, cell-free
quantity name: fraction unbound at 4 h
Answer with the value's number alone.

Record request: fraction unbound at 4 h value, item FC(F)(F)c1nccc2cc(Nc3n[nH]c4ncccc34)ccc12
0.015

----------
Test: Cmax in Sprague-Dawley rat at 10 mg/kg, po administered as spray-dried dispersion formulation and measured after 24 hrs by LC-MS/MS analysis
Assay type: ADME, organism-based
Parameters: dose 10 mg/kg, time 24 hrs, route po
Details: in vivo
quantity name: Cmax
A complete answer gives the number and then names the unit.

State the recorded Cmax for this entry: FC(F)(F)c1nccc2cc(Nc3n[nH]c4ncccc34)ccc12
2050 nM

----------
Experiment: Unbound brain-to-plasma concentration ratio in cynomolgus monkey at 0.2 mg/kg, iv and measured upto 1 hrs by LC-MS/MS analysis
Type: ADME, organism-based, Macaca fascicularis
Details: read-out: K(p,uu,brain)
quantity name: Kp uu at 1 h
Please reply with the number alone, leaving off any unit.

Form field: reported Kp uu at 1 h of FC(F)(F)c1nccc2cc(Nc3n[nH]c4ncccc34)ccc12
0.07

----------
Experiment: AUC (0 to infinity) in Sprague-Dawley rat at 3 mg/kg, po and measured upto 24 hrs by LC-MS/MS analysis
Assay type: ADME, organism-based
Parameters: time < 24 hrs, dose 3 mg/kg, route po
Conditions: in vivo
quantity name: AUC(0-inf) (µM·h)
Supply the numeric figure in µM·h, leaving out any unit text.

I would be grateful if you could share the reported AUC(0-inf) for FC(F)(F)c1nccc2cc(Nc3n[nH]c4ncccc34)ccc12 .
9.66
